Recorded inhibition values for a group of compounds are listed next.
- protocol: M. tuberculosis H37Rv growth inhibitors, H37Rv strain (AID 1626);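 note: bacteria incubated seven days before Alamar blue readout; 0% = bacteria only wells and 100% = bacteria with antibiotic wells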
- cond: hits give high values, concentration not given here
In all, about 220,000 compounds went through this assay and about 2,000 (0.91%) were called active. Roughly 2% stayed inconclusive and do not appear here. These entries were drawn from the full list. Potency and affinity values are given separately.
Provide only the numeric value, understood in %.

Answered cases to consult:
Cc1cc(Nc2ccc(Cl)cc2)n(-c2cccc(Cl)c2)n1 = 4.87
Cc1ccc(Nc2nnc(SCC(=O)Nc3ncc(S(=O)(=O)c4ccc([N+](=O)[O-])cc4)s3)s2)cc1 = 0
CCN1CCN(C(=O)c2cn(CCOC)c(=O)c3c2c2ccccc2n3C)CC1 = 2.91
Cc1ccc(S(=O)(=O)N(CCCO)Cc2cc3c(C)ccc(C)c3[nH]c2=O)cc1 = -4.12
C=C1C(=O)[C@@]23[C@H](O)C[C@@H]4C(C)(C)CC[C@H](O)[C@]4(C)[C@@H]2C[C@H](O)[C@@H]1[C@H]3O = -0.64
COc1ccc(C(=O)NCCNc2ccccc2[N+](=O)[O-])cc1 = -4.94
COc1ccc(-c2csc(NC(C)c3nc4cc(Cl)c(Cl)cc4n3CCCO)n2)cc1 (configuration not stated) = 5.27
CCCCn1c(=O)c(C(=O)Nc2ccsc2C(=O)OC)c(O)c2ccccc21 = 1.97
c1ccc(N2CCOCC2)c(Nc2nc3ccccc3n3cnnc23)c1 = 8.42
O=C(/C(C=Nc1cccc(C(F)(F)F)c1)=C(/O)c1ccco1)C(F)(F)F = 0.06

Input: Param item = COc1ccc(Nc2nc(C)cc(=O)[nH]2)cc1 ; retrieve measured inhibition.
Output: -16.4

Input: Param item = O=C(NCC(=O)N1CCC(N2CCCCC2)CC1)C1CCCCC1 ; retrieve measured inhibition.
Output: -10.3

Input: Param item = Cc1cc([N+](=O)[O-])c(Cl)cc1NC(=O)C(C)C ; retrieve measured inhibition.
Output: -3.38
